Data origin, for the record: patent US8552016B2

# Tested on: A431-FBP cells
# test_description: Inhibition of growth of A431-FBP cells (A431 transfected with the α-FR)
# Format: cell-based, human
# assay_setup: 1 nM LV; read-out: Inhibition of cell growth, IC50, A431-FBP
recorded_metric: IC50 (nM)

>>> experimental_value("C#CCN(Cc1cc2c(O)nc(C)nc2cc1C)c1ccc(C(=O)N[C@@H](CCc2nnn[nH]2)C(=O)O)c(F)c1")
8.8

###

# Test system: A431-FBP cells
# test_description: Inhibition of growth of A431-FBP cells (A431 transfected with the α-FR)
# Type: cell-based, human
# assay_setup: read-out: Inhibition of cell growth, IC50, A431-FBP + 1 μM FA; 1 nM LV; + 1 μM folic acid
recorded_metric: IC50 (nM)

>>> experimental_value("C#CCN(Cc1cc2c(O)nc(C)nc2cc1C)c1ccc(C(=O)N[C@@H](CCc2nnn[nH]2)C(=O)O)c(F)c1")
27

###

# System: KB cells
# test_description: Inhibition of growth of KB cells (constitutively overexpress α-FR)
# Type: cell-based, human
# assay_setup: Homo sapiens, KB, read-out: Inhibition of cell growth, IC50, KB + 1 μM FA, 1 nM LV; + 1 μM folic acid
Below, each entry is listed with its recorded IC50.
recorded_metric: IC50

>>> experimental_value("C#CCN(c1ccc(C(=O)N[C@@H](CCC(=O)N[C@H](CCC(=O)O)C(=O)O)C(=O)O)cc1)C1CCc2cc3nc(CO)[nH]c(=O)c3cc21 (mixture of isomers) [CB300945 (RS)]")
"7.6 µM"
>>> experimental_value("C#CCN(c1ccc(C(=O)N[C@@H](CCC(=O)N[C@H](CCC(=O)O)C(=O)O)C(=O)O)cc1)C1CCc2cc3nc(C)[nH]c(=O)c3cc21 (mixture of isomers) [CB300638 (RS)]")
"0.61 µM"
>>> experimental_value("C#CCN(c1ccc(C(=O)N[C@@H](CCC(=O)N[C@H](CCC(=O)O)C(=O)O)C(=O)O)cc1)C1CCc2cc3nc(N)[nH]c(=O)c3cc21 (mixture of isomers) [CB300944 (RS)]")
"19 µM"

###

# Tested on: A431 cells
# test_description: Inhibition of growth of A431 (neo-transfected, not expressing α-FR) cells
# Type: cell-based, human
# assay_setup: read-out: Inhibition of cell growth, IC50, A431 + 1 μM FA; 1 nM LV; + 1 μM folic acid
pIC50: −log10 of the molar value.
recorded_metric: pIC50

>>> experimental_value("C#CCN(Cc1cc2c(O)nc(C)nc2cc1C)c1ccc(C(=O)N[C@@H](CCc2nnn[nH]2)C(=O)O)c(F)c1")
7.25

###

# System: A431-FBP cells
# test_description: Inhibition of growth of A431-FBP cells (A431 transfected with the α-FR)
# Type: cell-based, human
# assay_setup: read-out: Inhibition of cell growth, IC50, A431-FBP + 1 μM FA; 20 nM LV; + 1 μM folic acid
recorded_metric: IC50 (nM)

>>> experimental_value("C#CCN(Cc1cc2c(O)nc(C)nc2cc1C)c1ccc(C(=O)N[C@@H](CCc2nnn[nH]2)C(=O)O)c(F)c1")
34

###

Below, each entry is listed with its recorded IC50.
# Test system: A431-FBP cells
# test_description: Inhibition of growth of A431-FBP cells (A431 transfected with the α-FR)
# Assay type: cell-based, human
# assay_setup: Homo sapiens, A-431, read-out: Inhibition of cell growth, IC50, A431-FBP + 1 μM FA, 20 nM LV; + 1 μM folic acid
recorded_metric: IC50 (µM)

>>> experimental_value("C#CCN(c1ccc(C(=O)N[C@@H](CCC(=O)N[C@H](CCC(=O)O)C(=O)O)C(=O)O)cc1)C1CCc2cc3nc(C)[nH]c(=O)c3cc21 (mixture of isomers) [CB300638 (RS)]")
0.87
>>> experimental_value("C#CCN(c1ccc(C(=O)N[C@@H](CCC(=O)N[C@H](CCC(=O)O)C(=O)O)C(=O)O)cc1)C1CCc2cc3nc(CO)[nH]c(=O)c3cc21 (mixture of isomers) [CB300945 (RS)]")
6.5
>>> experimental_value("C#CCN(c1ccc(C(=O)N[C@@H](CCC(=O)N(C)[C@@H](CCC(=O)O)C(=O)O)C(=O)O)cc1)C1CCc2cc3nc(CO)[nH]c(=O)c3cc21 (mixture of isomers) [CB300960 (R, S)]")
5.1
>>> experimental_value("C#CCN(c1ccc(C(=O)N[C@@H](CCC(=O)N[C@H](CCC(=O)O)C(=O)O)C(=O)O)cc1)C1CCc2cc3nc(N)[nH]c(=O)c3cc21 (mixture of isomers) [CB300944 (RS)]")
7.1
